Provenance of the data: the supplement of paper PMC10567573

B1: SPOPL (parent)
chain: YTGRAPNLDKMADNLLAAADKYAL

# Variants of: B1
# protocol-summary: protein stability index of a GFP-peptide fusion (GPS, HEK-293T) (PSI 1-6); higher = more stable;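 also: lentivirally expressed fusions sorted by FACS into six bins by GFP to DsRed ratio, PSI derived from sequencing read proportions per bin multiplied by bin number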
# measurement-setup: c terminus: a fixed tail appended
parameter: protein stability index
Please give only the number in your answer, with no unit.

protein stability index in this record for `L15P` : 2.43

protein stability index in this record for `L24F` : 2.01

protein stability index in this record for `L16H` : 2.97

protein stability index in this record for `A19H` : 2.24

protein stability index in this record for `R4E` : 3.04

protein stability index in this record for `L16S` : 1.84

protein stability index in this record for `A5E` : 3.58

protein stability index in this record for `K10L` : 1.89

protein stability index in this record for `K21L` : 2.02

protein stability index in this record for `Y22F` : 1.92

protein stability index in this record for `K21I` : 1.42

protein stability index in this record for `P6T` : 2.16

protein stability index in this record for `G3K` : 2.18

protein stability index in this record for `Y1N` : 3.81

protein stability index in this record for `A18C` : 1.51

protein stability index in this record for `A17K` : 2.28

protein stability index in this record for `G3R` : 2.29

protein stability index in this record for `A19S` : 1.65

protein stability index in this record for `Y22V` : 2.27

protein stability index in this record for `P6G` : 1.68

protein stability index in this record for `K21Y` : 1.13

protein stability index in this record for `R4F` : 2.12

protein stability index in this record for `D13L` : 1.81

protein stability index in this record for `D20T` : 2.34

protein stability index in this record for `L16A` : 2.24

protein stability index in this record for `D9E` : 2.24

protein stability index in this record for `D13S` : 2.04

protein stability index in this record for `N7T` : 2.06

protein stability index in this record for `N14S` : 2.38

protein stability index in this record for `A5V` : 1.78

protein stability index in this record for `M11R` : 2.05

protein stability index in this record for `P6Y` : 1.75

protein stability index in this record for `A17P` : 1.95

protein stability index in this record for `D9H` : 2.17

protein stability index in this record for `R4A` : 2.38

protein stability index in this record for `L24N` : 2.66

protein stability index in this record for `N7F` : 3.09

protein stability index in this record for `D9K` : 2.34

protein stability index in this record for `L24G` : 2.78

protein stability index in this record for `A12T` : 2.97
